Target of assay: GRIP2_4, Q9C0E4
Sequence (Q9C0E4 446-548): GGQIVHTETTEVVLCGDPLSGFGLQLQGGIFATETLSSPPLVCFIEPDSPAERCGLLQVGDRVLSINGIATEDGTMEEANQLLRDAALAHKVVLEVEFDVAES
Measurement description: holdup assay
Set-up: key: below the threshold = too weak to quantify, mostly under pKd 3.1 to 4
Test context: plain residues with an end cap or a label only (N-terminal biotin on a linker: ahx)
Endpoint name: pKd

> print(dat)
                        binder       endpoint.value
1  TEAKLTETNA [MYO18A, Q92614]  below the threshold
2  HTHSYIETHV [CNKSR2, Q8WXI2]  below the threshold
3  TQKFRASTAL [FRMPD1, Q5SYB0]  below the threshold
4  EKQAKGDTEF [CACYBP, Q9HB71]  below the threshold
5     TESNLQTSSC [CGN, Q9P2M7]  below the threshold
